Assayed target: CCR5 (UniProt P51681)
Assay explanation: cell-based or functional assay
So I've got a bunch of binders here, and I need their CCR5 signalling (%) (% of Emax of PSC-RANTES) values.
Kindly provide the number alone.

Query :: Please give the measured CCR5 signalling (%) (% of Emax of PSC-RANTES) for this binder: RANTES derivative: signature sequence SEQ ID NO: 30 fused to positions 10-68 of native RANTES (SEQ ID NO: 1) (ligand) QGPPLSWLQVCCFAYIARPLPRAHIKEYFYTSGKCSNPAVVFVTRKNRQVCANPEKKWVREYINSLEMS
Result :: 4.1

Query :: Please give the measured CCR5 signalling (%) (% of Emax of PSC-RANTES) for this binder: RANTES derivative: signature sequence SEQ ID NO: 69 fused to positions 10-68 of native RANTES (SEQ ID NO: 1) (ligand) QGPPLMSGQVCCFAYIARPLPRAHIKEYFYTSGKCSNPAVVFVTRKNRQVCANPEKKWVREYINSLEMS
Result :: 20.1

Query :: Please give the measured CCR5 signalling (%) (% of Emax of PSC-RANTES) for this binder: RANTES derivative: signature sequence SEQ ID NO: 22 fused to positions 10-68 of native RANTES (SEQ ID NO: 1) (ligand) QGPPLMSFQSCCFAYIARPLPRAHIKEYFYTSGKCSNPAVVFVTRKNRQVCANPEKKWVREYINSLEMS
Result :: 2.4

Query :: Please give the measured CCR5 signalling (%) (% of Emax of PSC-RANTES) for this binder: RANTES derivative: signature sequence SEQ ID NO: 42 fused to positions 10-68 of native RANTES (SEQ ID NO: 1) (ligand) QGPPMSAYQVCCFAYIARPLPRAHIKEYFYTSGKCSNPAVVFVTRKNRQVCANPEKKWVREYINSLEMS
Result :: 0.2

Query :: Please give the measured CCR5 signalling (%) (% of Emax of PSC-RANTES) for this binder: RANTES derivative: signature sequence SEQ ID NO: 35 fused to positions 10-68 of native RANTES (SEQ ID NO: 1) (ligand) QGPPGMWSQSCCFAYIARPLPRAHIKEYFYTSGKCSNPAVVFVTRKNRQVCANPEKKWVREYINSLEMS
Result :: 4.9

Query :: Please give the measured CCR5 signalling (%) (% of Emax of PSC-RANTES) for this binder: RANTES derivative: signature sequence SEQ ID NO: 23 fused to positions 10-68 of native RANTES (SEQ ID NO: 1) (ligand) QGPPLMSTQSCCFAYIARPLPRAHIKEYFYTSGKCSNPAVVFVTRKNRQVCANPEKKWVREYINSLEMS
Result :: 5.3

Query :: Please give the measured CCR5 signalling (%) (% of Emax of PSC-RANTES) for this binder: RANTES derivative: signature sequence SEQ ID NO: 15 fused to positions 10-68 of native RANTES (SEQ ID NO: 1) (ligand) QGPPLMQTTPCCFAYIARPLPRAHIKEYFYTSGKCSNPAVVFVTRKNRQVCANPEKKWVREYINSLEMS
Result :: 2.4

Query :: Please give the measured CCR5 signalling (%) (% of Emax of PSC-RANTES) for this binder: RANTES derivative: signature sequence SEQ ID NO: 53 fused to positions 10-68 of native RANTES (SEQ ID NO: 1) (ligand) QGPPLMWSQVCCFAYIARPLPRAHIKEYFYTSGKCSNPAVVFVTRKNRQVCANPEKKWVREYINSLEMS
Result :: 5.1

Query :: Please give the measured CCR5 signalling (%) (% of Emax of PSC-RANTES) for this binder: RANTES derivative: signature sequence SEQ ID NO: 49 fused to positions 10-68 of native RANTES (SEQ ID NO: 1) (ligand) QGPLGQQGQVCCFAYIARPLPRAHIKEYFYTSGKCSNPAVVFVTRKNRQVCANPEKKWVREYINSLEMS
Result :: 97.2

Query :: Please give the measured CCR5 signalling (%) (% of Emax of PSC-RANTES) for this binder: RANTES derivative: signature sequence SEQ ID NO: 46 fused to positions 10-68 of native RANTES (SEQ ID NO: 1) (ligand) QGPLSGWAQVCCFAYIARPLPRAHIKEYFYTSGKCSNPAVVFVTRKNRQVCANPEKKWVREYINSLEMS
Result :: 97.6
